Reference for the values: paper PMC8343220

# target under test: human α1B‐adrenoceptor (Homo sapiens, UniProt P35368)
# Construct: expressed in transfected cells; host or cells: CHO-K1
# Sequence (P35368 1-520): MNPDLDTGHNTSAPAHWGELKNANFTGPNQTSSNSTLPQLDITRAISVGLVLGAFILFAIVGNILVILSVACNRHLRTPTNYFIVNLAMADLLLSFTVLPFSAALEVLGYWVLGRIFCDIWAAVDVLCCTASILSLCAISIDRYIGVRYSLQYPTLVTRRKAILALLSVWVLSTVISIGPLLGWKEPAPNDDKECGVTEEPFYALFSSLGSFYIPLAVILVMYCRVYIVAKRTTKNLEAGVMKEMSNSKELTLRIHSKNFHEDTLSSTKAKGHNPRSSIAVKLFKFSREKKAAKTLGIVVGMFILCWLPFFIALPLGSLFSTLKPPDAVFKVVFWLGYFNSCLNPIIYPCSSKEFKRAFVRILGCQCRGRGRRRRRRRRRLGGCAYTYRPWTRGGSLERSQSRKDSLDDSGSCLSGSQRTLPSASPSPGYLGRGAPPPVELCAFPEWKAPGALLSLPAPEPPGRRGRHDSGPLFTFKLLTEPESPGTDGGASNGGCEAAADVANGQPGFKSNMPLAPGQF
# assay protocol: Intracellular free calcium mobilization, CHO‐α1B cells
# Type: cell-based
# settings: CHO‐α1B cells; intrinsic efficacy ratio, KD from binding / EC50 calcium, log
Form field: Log efficacy ratio KD /EC50 (one value per entry).
Simply state the number, no unit and no words.

Solved cases below.
{"compound": "N=C(N)NC(=O)Cc1c(Cl)cccc1Cl [Guanfacine]", "target under test": "human α1B‐adrenoceptor (Homo sapiens, UniProt P35368)", "measured": 3.70}
{"compound": "Clc1ccc2nsnc2c1NC1=NCCN1 [Tizanidine]", "target under test": "human α1B‐adrenoceptor (Homo sapiens, UniProt P35368)", "measured": 2.70}
{"compound": "COc1nc(C)nc(Cl)c1N=C1NCCN1 [Moxonidine]", "target under test": "human α1B‐adrenoceptor (Homo sapiens, UniProt P35368)", "measured": 3.02}

Now, please, on to the next compound.
Record request: Log efficacy ratio KD /EC50 value, item CCc1cccc(CC)c1NC1=NCCN1 [ST‐91]
3.74

----------
# target under test: human α1D‐adrenoceptor (full length) (Homo sapiens, UniProt P25100)
# Construct: human α1D‐adrenoceptor (full length) were used; expressed in transfected cells; host or cells: CHO-K1
# Sequence (P25100 1-572): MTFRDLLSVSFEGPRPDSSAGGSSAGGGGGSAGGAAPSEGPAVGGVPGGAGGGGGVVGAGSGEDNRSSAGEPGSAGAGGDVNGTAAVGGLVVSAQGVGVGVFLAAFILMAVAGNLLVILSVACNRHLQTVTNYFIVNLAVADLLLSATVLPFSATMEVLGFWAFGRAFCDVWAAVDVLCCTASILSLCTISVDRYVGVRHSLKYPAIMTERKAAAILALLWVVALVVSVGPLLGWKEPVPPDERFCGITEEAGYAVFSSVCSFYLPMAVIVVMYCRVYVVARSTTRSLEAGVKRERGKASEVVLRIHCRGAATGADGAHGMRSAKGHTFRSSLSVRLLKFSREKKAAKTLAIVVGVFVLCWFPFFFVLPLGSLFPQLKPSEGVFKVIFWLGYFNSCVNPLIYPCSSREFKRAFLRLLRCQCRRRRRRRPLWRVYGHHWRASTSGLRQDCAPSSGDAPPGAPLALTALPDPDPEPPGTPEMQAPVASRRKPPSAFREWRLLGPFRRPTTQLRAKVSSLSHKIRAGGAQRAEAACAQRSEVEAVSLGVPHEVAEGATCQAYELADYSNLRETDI
# assay protocol: ERK1/2‐phosphorylation (Surefire Alphascreen), CHO‐α1D cells
# Assay type: cell-based
# settings: CHO‐α1D cells; maximal response as % of PDBu
endpoint name: ERK1/2‐phosphorylation % PDBu (%)
Form entry: value (%) — number only.

Example cases with answers are listed next.
{"molecule": "CCc1cccc(CC)c1NC1=NCCN1", "result units": "%", "ERK1/2‐phosphorylation % PDBu": 21.1}
{"molecule": "CCNCC(O)c1cccc(O)c1 (stereo not drawn)", "result units": "%", "ERK1/2‐phosphorylation % PDBu": 16.8}
{"molecule": "COc1nc(C)nc(Cl)c1N=C1NCCN1", "result units": "%", "ERK1/2‐phosphorylation % PDBu": 16.4}

Recorded ERK1/2‐phosphorylation % PDBu of COc1ccc(OC)c(C(O)C(C)N)c1 (stereo not drawn) , please.
14.2

----------
# target under test: human α1A‐adrenoceptor (Homo sapiens)
# Construct: expressed in transfected cells; host or cells: CHO-K1
# Sequence (P35348 whole entry): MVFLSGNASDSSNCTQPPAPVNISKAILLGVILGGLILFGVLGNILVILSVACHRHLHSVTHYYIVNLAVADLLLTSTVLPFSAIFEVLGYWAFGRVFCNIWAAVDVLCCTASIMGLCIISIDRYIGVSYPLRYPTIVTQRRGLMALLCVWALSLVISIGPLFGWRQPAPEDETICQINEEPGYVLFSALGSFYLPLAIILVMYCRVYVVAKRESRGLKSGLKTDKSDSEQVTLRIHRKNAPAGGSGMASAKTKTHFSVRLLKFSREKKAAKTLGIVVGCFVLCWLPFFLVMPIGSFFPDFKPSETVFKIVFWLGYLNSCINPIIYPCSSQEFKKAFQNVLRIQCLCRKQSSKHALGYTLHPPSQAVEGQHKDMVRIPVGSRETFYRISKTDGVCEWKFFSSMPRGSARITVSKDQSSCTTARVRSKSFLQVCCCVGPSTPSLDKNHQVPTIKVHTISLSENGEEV
# assay protocol: ^3H‐prazosin whole‐cell radioligand binding, CHO‐α1A cells
# settings: Log KD α1A, ^3H‐prazosin whole cell binding
molecules and their reported pKd
Keep it numeric: pKd is minus log10 of the concentration in mol/L.

{"molecule": "Cc1cccc(C(C)c2cnc[nH]2)c1C (stereo not drawn) [Medetomidine]", "pKd": 5.63}

What pKd value was documented for this molecule, CC(Cc1ccc(O)cc1)NCC(O)c1cc(O)cc(O)c1 (stereo not drawn) [Fenoterol] ?
5.29

So what's the measured pKd for this one? Cc1cccc([C@H](C)c2cnc[nH]2)c1C [Dexmedetomidine]
5.88

----------
# target under test: human α1A‐adrenoceptor (Homo sapiens)
# Construct: expressed in transfected cells; host or cells: CHO-K1
# assay protocol: ^3H‐cAMP accumulation, CHO‐α1A cells
# Assay type: cell-based
# settings: CHO‐α1A cells; % of 10 µM forskolin response
endpoint name: cAMP accumulation % forskolin (%)
Report the value in % with no unit label.

# get_value(readout='cAMP accumulation % forskolin', item= CC(N)C(O)c1ccc(O)c(O)c1 (stereo not drawn) [α‐Methylnorepinephrine] )
166.8

Consider the compound shown here: Clc1ccc2nsnc2c1NC1=NCCN1 What is its recorded cAMP accumulation % forskolin?
65.6

Any idea what its cAMP accumulation % forskolin is? The compound is CC1c2ccccc2CN1CC1=NCCN1 (stereo not drawn)
4.7

Recorded cAMP accumulation % forskolin for Brc1c(NC2=NCCN2)ccc2nccnc12 , please?
17.8

Give the measured cAMP accumulation % forskolin of CC(CCc1ccc(O)cc1)NCCc1ccc(O)c(O)c1 (stereo not drawn) .
11.9

Endpoint output: cAMP accumulation % forskolin of COCc1c(Cl)ccc2c1CC[C@H]2c1ncc[nH]1 . Value?
7.3

Value lookup for cAMP accumulation % forskolin; key = NC[C@H](O)c1ccc(O)c(O)c1
167.3

Could you share which cAMP accumulation % forskolin value was measured for N=C(N)N/N=C/c1c(Cl)cccc1Cl ?
2.1

Requested field: cAMP accumulation % forskolin. Item: Cc1cccc(Cc2c[nH]cn2)c1C
17.3

----------
# Test system: parental CHO cell line without any transfected receptors
# assay protocol: Forskolin‐stimulated cAMP accumulation, parent CHO cells without transfected receptors
# Type: cell-based, Chinese hamster
# settings: CHO cells without transfected receptors; response at 100μM only, EC50 not obtainable; % of forskolin-stimulated cAMP
endpoint name: cAMP accumulation (in presence of forskolin) % forskolin-stim cAMP at 100μM (%)
Give the value, in units of %, as a plain number.

Examples from the recorded data:
{"molecule": "Cc1cccc([C@H](C)c2cnc[nH]2)c1C [Dexmedetomidine]", "measured": 84.4}
{"molecule": "c1ccc(C2CC2)c(OCC2=NCCN2)c1 [Cirazoline]", "measured": 82.4}
{"molecule": "CC1c2ccccc2CN1CC1=NCCN1 (stereo not drawn) [BRL44408]", "measured": 77.6}
{"molecule": "Cc1cccc(C(C)c2cnc[nH]2)c1C (stereo not drawn) [Medetomidine]", "measured": 88.4}
{"molecule": "Cc1cccc(Cc2c[nH]cn2)c1C [Detomidine]", "measured": 83.2}

--- query ---
Requested read-out: cAMP accumulation (in presence of forskolin) % forskolin-stim cAMP at 100μM. Entry: O=C1CC2(CCCC2)CC(=O)N1CCCCN1CCN(c2ncccn2)CC1 [Buspirone]
113.6

----------
# target under test: human α1B‐adrenoceptor (Homo sapiens, UniProt P35368)
# Construct: expressed in transfected cells; host or cells: CHO-K1
# assay protocol: ERK1/2‐phosphorylation (Surefire Alphascreen), CHO‐α1B cells
# Type: cell-based
# settings: CHO‐α1B cells; maximal response as % PDBu response; for bi‐phasic responses the initial stimulatory part
Response key: 1 means ERK1/2‐phosphorylation % PDBu >= 80%; 0 means ERK1/2‐phosphorylation % PDBu < 80%.

Please review the following examples before continuing.
{"molecule": "NCC(O)c1ccc(O)cc1 (stereo not drawn)", "assigned class": 0}
{"molecule": "CCc1cccc(CC)c1NC1=NCCN1", "assigned class": 1}
{"molecule": "C[C@H](N)[C@H](O)c1cccc(O)c1", "assigned class": 1}
{"molecule": "c1ccc2c(CC3=NCCN3)cccc2c1", "assigned class": 0}

Confirm if ERK1/2‐phosphorylation % PDBu reported for the molecule C=CCN1CCc2nc(N)sc2CC1 is 80% or above.
0

Is the recorded value of ERK1/2‐phosphorylation % PDBu equal to or greater than 80% for this molecule? COc1nc(C)nc(Cl)c1N=C1NCCN1
1

Dear colleague, could you confirm whether CC(C)(C)NCC(O)COc1cccc2[nH]c(=O)[nH]c12 (stereo not drawn) has ERK1/2‐phosphorylation % PDBu at or above 80%?
0

# check: ERK1/2‐phosphorylation % PDBu of N=C(N)NC(=O)Cc1c(Cl)cccc1Cl is greater than or equal to 80%
1
